# Protocol Notes: in vitro hepatocyte clearance, human
# Type: in vitro ADME
# Test Settings: Human hepatocytes; read-out: In vitro Clint (μL/min/10^6 cells)
Readout: hepatocyte CLint (µL/min/1e6 cells)
Give bare numbers, in µL/min/1e6 cells.

CSc1ccccc1CNCCc1ccc(C#N)cc1O    609

Alright, here's another compound for you.
Field hepatocyte CLint (entry `COc1cc(C(F)(F)F)ccc1CCNCc1ccccc1O` ) reads 54.8

====

# Measured Target: 5-HT2A receptor (Homo sapiens, UniProt P28223)
# Construct: expressed in transfected cells; host or cells: HEK293T
# Sequence (P28223 whole entry): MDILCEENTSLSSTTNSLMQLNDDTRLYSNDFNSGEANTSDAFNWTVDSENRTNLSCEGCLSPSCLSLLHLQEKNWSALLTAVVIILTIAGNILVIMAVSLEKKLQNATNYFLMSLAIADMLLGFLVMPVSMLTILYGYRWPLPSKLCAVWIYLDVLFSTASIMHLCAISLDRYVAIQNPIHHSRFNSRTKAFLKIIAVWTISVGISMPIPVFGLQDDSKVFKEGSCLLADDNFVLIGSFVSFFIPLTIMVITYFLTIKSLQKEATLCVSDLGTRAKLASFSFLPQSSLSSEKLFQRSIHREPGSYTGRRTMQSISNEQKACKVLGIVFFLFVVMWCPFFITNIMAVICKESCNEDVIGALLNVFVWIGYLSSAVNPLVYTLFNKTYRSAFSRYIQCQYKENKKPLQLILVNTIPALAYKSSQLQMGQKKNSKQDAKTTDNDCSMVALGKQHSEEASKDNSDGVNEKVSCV
# Protocol Notes: 5-HT2A Gq dissociation BRET functional assay
# Format: cell-based
# Test Settings: Table 2; normalized to % 5-HT stimulation
Readout: 5-HT2A BRET Eff % (%)
Answers are plain numbers, in %.

CSc1ccccc1CNC[C@@H]1CCc2cc(C#N)cc(O)c21    68

Your task in this section: give 5-HT2A BRET Eff % for each listed record.
1. COc1cc(Oc2ccccc2)ccc1CCNCc1ccccc1O
2. COc1cc(C#N)ccc1CCNCc1cccc2c1OCO2
3. CSc1ccccc1CCNCCc1ccc(C#N)cc1O
4. COc1cc(C#N)c(F)cc1CCNCc1ccccc1SC

a:
1: 100; 2: 84; 3: 67; 4: 99

Your task in this section: give 5-HT2A BRET Eff % for each listed record.
1. Cc1ccc(CCNCc2cccc3c2OCO3)c(O)c1
2. COc1cc(C#N)c(F)cc1CCNCc1ccccc1O [Cpd #4]
3. CSc1ccc(CCNCc2ccccc2SC)c(O)c1
4. COc1cc2c(cc1CCNCc1ccccc1O)CCO2
5. N#Cc1ccc(CCNCc2cccc3ccsc23)c(O)c1
6. COc1cc(C#N)ccc1CCNCc1ccc(F)cc1F

a:
[70, 99, 94, 96, 11, 58]
